Target: T1, human programmed cell death protein 1 (hPD-1) C93S (aa 24-167) (Homo sapiens, UniProt Q15116, C93S)
T1 construct: made as a fusion with a TEV site and human Fc; the Fc was cut off with TEV protease; source: Expi293F, purified (Protein A, TEV cleavage of Fc, SEC; monomer fractions); not shown: Fc (human), C-terminal, cleaved
T1 sequence (Q15116 24-167 C93S): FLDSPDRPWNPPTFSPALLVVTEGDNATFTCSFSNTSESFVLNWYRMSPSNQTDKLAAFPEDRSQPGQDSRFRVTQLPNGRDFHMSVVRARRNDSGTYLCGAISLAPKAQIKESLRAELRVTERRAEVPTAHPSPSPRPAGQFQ
Experiment: SPR; Carterra LSA; Fab from the ammonium sulfate precipitate of the culture supernatant immobilised on a NiHC200M chip; hPD-1 (1-1024 nM) or mPD-1-Fc (4-1024 nM) as analyte, fourfold dilution series, no regeneration; HBS-EP pH 7.4, 25 °C; medians over the spots of a construct, KD = koff/kon
Settings: one partner purified
MEASUREMENT KIND: kon (M⁻¹ s⁻¹)
# unit: M⁻¹ s⁻¹ | format: bare number

>  <BINDER>
toripalimab Fab L.L101S (Fab, V domains shown, as the heavy chain of Sm3; light chain of Sm3 with this change; numbers count from the chain's first residue; source: Brevibacillus, culture supernatant (ammonium sulfate precipitate); not shown: 6xHis, C-terminal, kept; 6xHN, C-terminal, kept) VH: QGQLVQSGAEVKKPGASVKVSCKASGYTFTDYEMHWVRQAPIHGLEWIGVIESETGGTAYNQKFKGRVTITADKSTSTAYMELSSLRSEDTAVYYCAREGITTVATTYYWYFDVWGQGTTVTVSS VL: DVVMTQSPLSLPVTLGQPASISCRSSQSIVHSNGNTYLEWYLQKPGQSPQLLIYKVSNRFSGVPDRFSGSGSGTDFTLKISRVEAEDVGVYYCFQGSHVPSTFGQGTKLEIK

>  <kon (M⁻¹ s⁻¹)>
5870

$$$$
>  <BINDER>
toripalimab Fab L.V30A (Fab, V domains shown, as the heavy chain of Sm3; light chain of Sm3 with this change; numbers count from the chain's first residue; source: Brevibacillus, culture supernatant (ammonium sulfate precipitate); not shown: 6xHis, C-terminal, kept; 6xHN, C-terminal, kept) VH: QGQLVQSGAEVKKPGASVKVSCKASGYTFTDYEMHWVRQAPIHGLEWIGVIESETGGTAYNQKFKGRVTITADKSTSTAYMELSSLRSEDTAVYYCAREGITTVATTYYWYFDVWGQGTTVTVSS VL: DVVMTQSPLSLPVTLGQPASISCRSSQSIAHSNGNTYLEWYLQKPGQSPQLLIYKVSNRFSGVPDRFSGSGSGTDFTLKISRVEAEDVGVYYCFQGSHVPLTFGQGTKLEIK

>  <kon (M⁻¹ s⁻¹)>
28200

$$$$

Attention now shifts to the item below.
Look up kon for this binder: toripalimab Fab L.L101T (Fab, V domains shown, as the heavy chain of Sm3; light chain of Sm3 with this change; numbers count from the chain's first residue; source: Brevibacillus, culture supernatant (ammonium sulfate precipitate); not shown: 6xHis, C-terminal, kept; 6xHN, C-terminal, kept) VH: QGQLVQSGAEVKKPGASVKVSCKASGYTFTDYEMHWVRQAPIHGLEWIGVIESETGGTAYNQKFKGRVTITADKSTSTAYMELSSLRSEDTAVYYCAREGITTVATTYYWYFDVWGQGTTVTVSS VL: DVVMTQSPLSLPVTLGQPASISCRSSQSIVHSNGNTYLEWYLQKPGQSPQLLIYKVSNRFSGVPDRFSGSGSGTDFTLKISRVEAEDVGVYYCFQGSHVPTTFGQGTKLEIK
6000

Where these numbers come from: paper PMC10663500
